# Assay Explanation: qHTS assay to identify small molecule antagonists of the progesterone receptor (PR) signaling pathway - cell viability counter screen (AID 1346798); note: nearly all actives have a fitted effect of over 50% in size
# Condition: PR-UAS-bla HEK293T viability, CellTiter-Glo luminescence, 16 h; series mostly up to 92.4 µM
Results filed as inconclusive are left out. Activity calls are given as the source filed them. Calls come from the whole dose curve; as a rule, active = well fitted cell-killing curve with a large enough effect in the repeat runs; inconclusive = weak or mixed curves, or effect the other way; inactive = no such curve, though single readings can be large or run the other way.
Classes used: active, inactive

Compound: CCOC(=O)C1(c2ccccc2)CCN(CCC(C#N)(c2ccccc2)c2ccccc2)CC1
Classification: inactive
--
Compound: c1ccc(Nc2ccc3ccccc3c2)cc1
Classification: inactive
--
Compound: Cc1ccc(C(=O)Cl)cc1
Classification: inactive
--
Compound: CCS(=O)(=O)c1cccnc1S(=O)(=O)NC(=O)Nc1nc(OC)cc(OC)n1
Classification: inactive
--
Compound: CC(C)CCCCCOC(=O)c1ccccc1C(=O)OCCCCCC(C)C
Classification: inactive
--
Compound: COP(=O)(OC)SCn1c(=O)oc2cc(Cl)cnc21
Classification: inactive
--
Compound: N#Cc1ccccc1N
Classification: inactive
--
Compound: CC(=O)Nc1ccc2c(c1)Cc1ccccc1-2
Classification: inactive
--
Compound: COc1ccc(N)cc1N
Classification: inactive
--
Compound: CCC[CH2][Sn]([CH2]CCC)([CH2]CCC)[O]C(=O)c1ccccc1
Classification: active
--
Compound: BrC(Br)C(Br)(Br)Br
Classification: inactive
--
Compound: Nc1c(Oc2ccccc2)cc(O)c2c1C(=O)c1ccccc1C2=O
Classification: inactive
--
Compound: CN(C)[C@@H]1C(=O)C(C(N)=O)=C(O)[C@@]2(O)C(=O)C3=C(O)c4c(O)ccc(Cl)c4[C@@](C)(O)[C@H]3C[C@@H]12
Classification: inactive
--
Compound: CN(C)c1ccc(N=Nc2ccccc2)cc1
Classification: inactive
--
Compound: NC(=O)c1ccc(N)nc1
Classification: active
--
Compound: ClCCN1CCOCC1
Classification: inactive
--
Compound: c1ccc2cc3c(cc2c1)-c1cccc2cccc-3c12
Classification: inactive
--
Compound: C=CC(=O)OCCCCOC(=O)C=C
Classification: inactive
--
Compound: CC1(C)[C@H](C(=O)O[C@H](C#N)c2cccc(Oc3ccccc3)c2)[C@@H]1/C=C(\Cl)C(F)(F)F
Classification: inactive
--
Compound: NNC(=O)c1ccccc1
Classification: inactive
--
Compound: Nc1ccc(Cl)cc1C(=O)c1ccccc1
Classification: inactive
--
Compound: c1ccc2c(c1)OCC(C1=NCCN1)O2 (stereo not given)
Classification: inactive
--
Compound: Cc1cc(C)cc(OP(=O)(Oc2cc(C)cc(C)c2)Oc2cc(C)cc(C)c2)c1
Classification: inactive
--
Compound: CC(=[OH+])/C=C(/C)[O-].CC(=[OH+])/C=C(\C)[O-].CC(=[OH+])/C=C(\C)[O-].[Al]
Classification: inactive
--
Compound: O=[N+]([O-])c1c2ccccc2cc2ccccc12
Classification: active

###

# Assay Explanation: qHTS assay to identify small molecule antagonists of the retinoid acid receptor (RAR) signaling pathway - cell viability counter screen (AID 1159551); note: nearly all actives have a fitted effect of over 35% in size
# Condition: C3RL4 cells viability, ATP luminescence (CellTiter-Glo), 6 h; series mostly up to 92.4 µM
Inconclusive results are not listed. Active and inactive are the calls of the source. The call rests on the fitted dose curve; in most records, active means well fitted cell-killing curve with a large enough effect in the repeat runs; inconclusive means weak or mixed curves, or effect the other way; inactive means flat fitted curve, though single readings scatter.
Outcome codes: yes (active), no (inactive)

Molecule: CCCN(CCC)c1c([N+](=O)[O-])cc(S(N)(=O)=O)cc1[N+](=O)[O-]
Classification: yes

Molecule: Cn1cc(C2=C(c3cn(C4CCN(Cc5ccccn5)CC4)c4ccccc34)C(=O)NC2=O)c2ccccc21
Classification: no

Molecule: COc1cc(N)c(Cl)cc1C(=O)NC1CN2CCC1CC2 (stereo not drawn)
Classification: no

Molecule: BrC(Br)Br
Classification: no

Molecule: CCOCn1c(-c2ccc(Cl)cc2)c(C#N)c(Br)c1C(F)(F)F
Classification: no

Molecule: Fc1cccc(Cl)c1CCl
Classification: no

Molecule: ClC1=C(Cl)[C@]2(Cl)[C@@H]3[C@@H](Cl)[C@H](Cl)C[C@@H]3[C@@]1(Cl)C2(Cl)Cl
Classification: no

Molecule: C=COCCCl
Classification: no

Molecule: Nc1ccccc1C(=O)Oc1ccc2ccccc2c1
Classification: no

Molecule: CCC(C)c1cc(C(C)(C)C)cc(-n2nc3ccccc3n2)c1O (stereo not drawn)
Classification: no

Molecule: CCOCCOC(C)=O
Classification: no

Molecule: COC(=O)N(C(=O)N1COC2(C(=O)OC)Cc3cc(Cl)ccc3C2=N1)c1ccc(OC(F)(F)F)cc1 (stereo not drawn)
Classification: no

Molecule: CSCCCN=C=S
Classification: no

###

# Assay Explanation: A CellTox Green Cytotoxicity Assay to monitor cytotoxicity in HepG2 cells - 40 hour (AID 1224879); note: nearly all actives have a fitted effect of over 40% in size
# Condition: CellTox Green fluorescence; series mostly up to 76.8 µM
Inconclusive results are not listed. Activity calls are given as the source filed them. Calls follow the shape of the dose curve; as a rule, active = well fitted activation curve with a large enough effect in the repeat runs; inconclusive = weak or mixed curves; inactive = flat fitted curve, though single readings scatter.
Classes used: active, inactive

Molecule: c1ccc(Nc2ccc3ccccc3c2)cc1
Classification: active
//
Molecule: CC(C)(c1ccc(O)c(-c2ccccc2)c1)c1ccc(O)c(-c2ccccc2)c1
Classification: active
//
Molecule: S=C=Nc1cccc2ccccc12
Classification: inactive
//
Molecule: Oc1c(Cl)c(Cl)cc(Cl)c1Cl
Classification: inactive
//
Molecule: CCCSP(=O)(OCC)SCCC
Classification: inactive
//
Molecule: CC(C)(C)OO
Classification: inactive
//
Molecule: Oc1ccc(I)cc1
Classification: inactive
//
Molecule: CCOCCOC(C)=O
Classification: inactive
//
Molecule: NC(=O)CCl
Classification: inactive
//
Molecule: N#CNC#N
Classification: inactive
//
Molecule: C=CC(=O)OCC(COC(=O)C=C)(COC(=O)C=C)COC(=O)C=C
Classification: active
//
Molecule: COc1cccc2c1C(=O)c1c(O)c3c(c(O)c1C2=O)C[C@@](O)(C(=O)CO)CC3OC1CC(N2CCOC(OC)C2)C(O)C(C)O1 (stereo partly drawn)
Classification: active
//
Molecule: CC(C)[C@H](C(=O)OC(C#N)c1cccc(Oc2ccccc2)c1)c1ccc(OC(F)F)cc1 (stereo partly drawn)
Classification: inactive
//
Molecule: N#CCCSCCC#N
Classification: inactive
//
Molecule: OC(c1ccc(Cl)cc1)(c1ccc(Cl)cc1)C(Cl)(Cl)Cl
Classification: inactive
//
Molecule: Cc1ccc(OP(=O)(Oc2ccccc2)Oc2ccccc2)cc1
Classification: inactive
//
Molecule: CN(C)[C@@H]1C(=O)C(C(N)=O)=C(O)[C@@]2(O)C(=O)C3=C(O)c4c(O)ccc(Cl)c4[C@@](C)(O)[C@H]3C[C@@H]12
Classification: inactive
//
Molecule: CCOP(=S)(OCC)OC(Cl)C(Cl)(Cl)Cl (stereo not drawn)
Classification: inactive
//
Molecule: C[C@@H]1O[C@@H](O[C@@H]2C=C3CC[C@@H]4[C@H](CC[C@]5(C)[C@@H](c6ccc(=O)oc6)CC[C@]45O)[C@@]3(C)CC2)[C@H](O)[C@H](O)[C@H]1O
Classification: inactive
//
Molecule: SCc1ccco1
Classification: inactive
//
Molecule: [CH3][Hg][Cl]
Classification: active
//
Molecule: CCc1cc(C)cc(CC)c1-c1c(OC(=O)C(C)(C)C)n2n(c1=O)CCOCC2
Classification: inactive
//
Molecule: C[C@@H]1CC[C@@]2(OC1)O[C@H]1[C@@H](O)[C@H]3[C@@H]4CC[C@H]5C[C@@H](O[C@@H]6O[C@H](CO)[C@H](O[C@@H]7O[C@H](CO)[C@@H](O)[C@H](O[C@@H]8OC[C@@H](O)[C@H](O)[C@H]8O)[C@H]7O[C@@H]7O[C@H](CO)[C@@H](O)[C@H](O[C@@H]8O[C@H](CO)[C@@H](O)[C@H](O)[C@H]8O)[C@H]7O)[C@H](O)[C@H]6O)[C@H](O)C[C@]5(C)[C@H]4CC[C@]3(C)[C@H]1[C@@H]2C
Classification: active
//
Molecule: CCOC(=O)OC1=C(c2cc(C)ccc2C)C(=O)NC12CCC(OC)CC2 (stereo not drawn)
Classification: inactive
//
Molecule: N#Cc1ccc(O)cc1
Classification: inactive
//
Molecule: COP(=O)(CCC(=O)NCO)OC
Classification: inactive
//
Molecule: CCCCCCCCCCCCCN1CC(C)OC(C)C1 (stereo not drawn)
Classification: inactive
//
Molecule: CCc1nn(C)c(C(=O)NCc2ccc(C(C)(C)C)cc2)c1Cl
Classification: inactive
//
Molecule: COc1ccc(N)cc1N
Classification: inactive
//
Molecule: CC(=O)c1ccc(-c2ccccc2)cc1
Classification: inactive
//
Molecule: c1cc[c]([Sb]([c]2ccccc2)[c]2ccccc2)cc1
Classification: inactive
//
Molecule: ClCc1ccc(Cl)cc1Cl
Classification: inactive
//
Molecule: CNC(C)Cc1ccc2c(c1)OCO2 (stereo not drawn)
Classification: inactive
//
Molecule: COCC(=O)N(c1c(C)cccc1C)[C@H](C)C(=O)OC
Classification: inactive
//
Molecule: ClC(Cl)=C(Cl)Cl
Classification: inactive
//
Molecule: c1ccc2c(c1)OCC(C1=NCCN1)O2 (stereo not drawn)
Classification: inactive
//
Molecule: BrCC(Br)c1ccccc1 (stereo not drawn)
Classification: inactive
//
Molecule: CCOC(=O)C1(c2ccccc2)CCN(CCC(C#N)(c2ccccc2)c2ccccc2)CC1
Classification: inactive

The measured values listed here are drawn from PubChem BioAssay (Tox21).
